All figures here come from patent US20200308267A1.

Target: VEGF
Sequence (P15692 whole entry): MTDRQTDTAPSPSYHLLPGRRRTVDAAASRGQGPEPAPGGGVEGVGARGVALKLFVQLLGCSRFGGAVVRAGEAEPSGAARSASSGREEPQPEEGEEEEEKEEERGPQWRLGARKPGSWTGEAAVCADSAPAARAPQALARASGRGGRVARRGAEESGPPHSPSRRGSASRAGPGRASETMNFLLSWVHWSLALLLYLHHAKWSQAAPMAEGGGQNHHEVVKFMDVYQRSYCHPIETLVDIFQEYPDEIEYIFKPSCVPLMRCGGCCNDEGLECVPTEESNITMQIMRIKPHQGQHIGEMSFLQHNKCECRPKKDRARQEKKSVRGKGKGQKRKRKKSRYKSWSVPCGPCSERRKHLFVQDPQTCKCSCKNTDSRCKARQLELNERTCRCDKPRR
Experiment: cell-based or functional assay
ATTRIBUTE_MEASURED: HUVEC Erk phosphorylation, % inhibition (%)
Note: unit % is implicit; provide only the numeric part.

INSERT INTO results (binder, attribute_measured, number) VALUES
  ('VEGFBII025 (VHH, not shown: small tags and cut ends) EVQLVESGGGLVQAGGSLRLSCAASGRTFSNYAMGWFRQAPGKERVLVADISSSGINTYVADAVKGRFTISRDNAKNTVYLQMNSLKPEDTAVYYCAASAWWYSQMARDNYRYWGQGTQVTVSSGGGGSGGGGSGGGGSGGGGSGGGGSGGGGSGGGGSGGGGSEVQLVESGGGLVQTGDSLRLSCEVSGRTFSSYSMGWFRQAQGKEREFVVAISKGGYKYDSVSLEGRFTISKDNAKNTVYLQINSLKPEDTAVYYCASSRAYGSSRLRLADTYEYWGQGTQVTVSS', 'HUVEC Erk phosphorylation, % inhibition', 99),
  ('VEGFBII021 (VHH, not shown: small tags and cut ends) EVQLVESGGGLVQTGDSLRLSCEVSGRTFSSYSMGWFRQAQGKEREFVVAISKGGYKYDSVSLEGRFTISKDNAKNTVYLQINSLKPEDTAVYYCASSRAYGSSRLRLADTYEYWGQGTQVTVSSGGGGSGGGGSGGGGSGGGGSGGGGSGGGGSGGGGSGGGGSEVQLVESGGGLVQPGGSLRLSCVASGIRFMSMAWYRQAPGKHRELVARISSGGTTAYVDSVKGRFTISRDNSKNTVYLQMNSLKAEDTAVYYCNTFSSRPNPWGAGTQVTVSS', 'HUVEC Erk phosphorylation, % inhibition', 103);

Request: Give the measured HUVEC Erk phosphorylation, % inhibition of VEGFBII010 (VHH, not shown: small tags and cut ends) EVQLVESGGGLVQTGDSLRLSCEVSGRTFSSYSMGWFRQAQGKEREFVVAISKGGYKYDSVSLEGRFTISKDNAKNTVYLQINSLKPEDTAVYYCASSRAYGSSRLRLADTYEYWGQGTQVTVSSGGGGSGGGGSGGGGSGGGGSGGGGSGGGGSGGGGSEVQLVESGGGLVQTGDSLRLSCEVSGRTFSSYSMGWFRQAQGKEREFVVAISKGGYKYDSVSLEGRFTISKDNAKNTVYLQINSLKPEDTAVYYCASSRAYGSSRLRLADTYEYWGQGTQVTVSS .
Result: 92
